# credit: patent US20050130961A1

Tested on: tactile allodynia
Assay: CCI/Tactile Allodynia (von Frey hairs)
Format: in vivo
Conditions: CCI rats
METRIC NAME: Antiallodynic, minimal effective dose
Record the result as number plus unit.

These solved cases illustrate the format of a correct answer.
GIVEN SMILES	Antiallodynic, minimal effective dose
CCCCC1CCN(CCCc2nsc3ccccc23)CC1	10.0 mg/kg
CCCCC1CCN(CCCN2CCOc3ccc(C)cc32)CC1	30.0 mg/kg
CCCCCCOc1nsnc1C1=CCCN(C)C1	10.0 mg/kg
CO/N=C/C1=CCCN(C)C1	0.3 mg/kg
CCCCC1CCN(CCCN2C(=O)COc3cc(F)ccc32)CC1	17.8 mg/kg

Data request: // fetch Antiallodynic, minimal effective dose given entry O=C1CCCN1CC#CCN1CCCC1
Data returned: 0.3 mg/kg

* * *

Biological target: M(2) muscarinic receptor (Homo sapiens, UniProt P08172)
Construct: expressed in transfected cells
Test: R-SAT functional receptor assay, M(2)
Type: cell-based
Settings: R-SAT
METRIC NAME: agonist character at M(2) receptor, in words

GIVEN SMILES	ASSAY RESULT
CCCCC1CCN(CCCN2CCOc3ccc(C)cc32)CC1	weak partial agonists
CCCCC1CCN(CCCc2nsc3ccccc23)CC1	weak partial agonists
CCCCC1CCN(CCCN2C(=O)COc3cc(F)ccc32)CC1	weak partial agonists

* * *

Biological target: M(1) muscarinic receptor (Homo sapiens)
Construct: expressed in transfected cells
Sequence (P11229 whole entry): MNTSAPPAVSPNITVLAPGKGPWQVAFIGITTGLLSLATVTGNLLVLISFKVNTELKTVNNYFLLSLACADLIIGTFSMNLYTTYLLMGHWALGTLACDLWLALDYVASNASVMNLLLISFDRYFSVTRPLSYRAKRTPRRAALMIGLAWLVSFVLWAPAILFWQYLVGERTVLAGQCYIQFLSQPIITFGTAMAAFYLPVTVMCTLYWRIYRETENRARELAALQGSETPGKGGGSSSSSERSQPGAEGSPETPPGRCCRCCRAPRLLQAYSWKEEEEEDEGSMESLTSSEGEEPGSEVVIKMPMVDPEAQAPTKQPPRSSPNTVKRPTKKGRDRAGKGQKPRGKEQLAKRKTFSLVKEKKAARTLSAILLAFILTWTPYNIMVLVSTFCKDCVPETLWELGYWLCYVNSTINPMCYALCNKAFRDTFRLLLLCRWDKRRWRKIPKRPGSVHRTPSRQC
Experiment: R-SAT functional receptor assay, M(1)
Type: cell-based
METRIC NAME: pEC50
Numbers only, as −log10 of the molar value.

Data request: Name the recorded pEC50 of the item O=C1CCCN1CC#CCN1CCCC1 in your answer.
Data returned: 7.20

* * *

Give measured Emax for each item. Keep answers brief.
Molecular target: M(2) muscarinic receptor (Homo sapiens)
Construct: expressed in transfected cells
Sequence (P08172 1-466): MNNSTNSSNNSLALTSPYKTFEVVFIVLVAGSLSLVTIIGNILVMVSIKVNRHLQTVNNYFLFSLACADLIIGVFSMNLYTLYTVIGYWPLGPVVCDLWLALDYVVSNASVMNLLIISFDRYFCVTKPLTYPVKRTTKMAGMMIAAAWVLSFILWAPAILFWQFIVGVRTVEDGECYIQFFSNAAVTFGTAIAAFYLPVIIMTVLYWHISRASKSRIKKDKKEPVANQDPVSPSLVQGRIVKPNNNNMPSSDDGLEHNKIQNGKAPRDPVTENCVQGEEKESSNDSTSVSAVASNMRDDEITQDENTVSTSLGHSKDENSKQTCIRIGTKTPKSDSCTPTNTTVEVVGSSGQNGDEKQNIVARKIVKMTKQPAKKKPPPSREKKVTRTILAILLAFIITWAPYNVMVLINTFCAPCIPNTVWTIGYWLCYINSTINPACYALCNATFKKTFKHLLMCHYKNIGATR
Test: R-SAT functional receptor assay, M(2)
Format: cell-based
Conditions: R-SAT; relative to carbachol; read-out: M2 % efficacy
One number for each entry, in %.

COMPOUND	U	Emax
CO/N=C/C1=CCCN(C)C1 [Milameline]	%	110
CCCCC1CCN(CCCN2C(=O)COc3cc(F)ccc32)CC1 [Formula (IX)]	%	48
CCCCCCOc1nsnc1C1=CCCN(C)C1 [Xanomeline]	%	109

Now look at this entry.
Data request: Respond only with Emax recorded for CCCCC1CCN(CCCc2nsc3ccccc23)CC1 [Formula (VII)]
Data returned: 36
